The values you see were collected from patent US20190322750A1.

- TARGET OR SYSTEM: M6
- EXPERIMENTAL DETAILS: ELISA on coated antigen, column M6
PROPERTY: absorbance at 490 nm
API doc: respond with a numeric literal and nothing else, no unit.

Provide absorbance at 490 nm value for the following binder: PDL1-27F8 (antibody, V domains shown, Only FR/CDR pieces are tied to the clone) VH: QVQLVQSGAEVKKPGSSVKVSCKASGGTFSSSAFSWVRQAPGHGLEWMGRIIPMFDMTDYAQRFQGRLTIIADESSSTAYMELSSLRSEDTAVYYCARSNPHYMDVWGQGTTVTVSS VL: QLVLTQPPSVSGAPGQRVTISCTGSNSDIGAGHDVHWYQQIPGTAPKVLIYGNTDRPSGVPDRFSGSKSGTSASLAITGLQAEDEADYYCQSYDSSLSGYVFGTGTKVTVL
2.9

Provide absorbance at 490 nm value for the following binder: PDL1-16E12 (antibody, V domains shown, Only FR/CDR pieces are tied to the clone; also called parent antibody) VH: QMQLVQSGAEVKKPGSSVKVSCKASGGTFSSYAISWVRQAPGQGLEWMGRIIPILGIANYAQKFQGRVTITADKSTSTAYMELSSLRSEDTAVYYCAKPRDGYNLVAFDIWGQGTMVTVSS VL: QLVLTQPPSVSGAPGQTVTISCTGSSSNIGAGYDVHWYQQLPGTAPKLLIYGNNNRPSGVPDRFSGSKSGALASLAITGLQAEDGADYHCQSYDNSLSAHAVFGTGTKVTVL
2.5

Provide absorbance at 490 nm value for the following binder: PDL1-11A7 (antibody, V domains shown, Only FR/CDR pieces are tied to the clone) VH: QVQLVQSGAEVKKPGASVKVSCKVSGYTLTELSMHWVRQAPGKGLEWMGGFDPEDGETIYAQKFQGRVTMTEDTSTDTAYMELSSLRSEDTAVYYCARDPWGGYYGMDVWGQGTTVTVSS VL: DIQMTQSPSSVSASVGDRVTINCRASQGIRTWLAWYQQKPGKAPKLLIYAASNLQSGVPSRFSGSGSGTDFTLTIASLQPEDFATYYCQQANSFPLTFGGGTKVEIK
2.5
